test: log P determination by HPLC (reversed-phase C18), EEC Directive 79/831 Annex V.A8; type: physicochemical; details: reversed-phase C18 HPLC column; pH 2.3; HPLC, reversed-phase C 18, 43° C., 0.1% aqueous phosphoric acid/acetonitrile; read-out: log P (pH 2.3)
READOUT: chromatographic logP

1) CCOC(=O)C(C)Sc1nccc(-c2ccccn2)n1 (stereo not drawn) :: 2.74
2) CN(C=O)CCOC(=O)CSc1nccc(-c2ccccn2)n1 :: 1.4

(a) O=C(CSc1nccc(-c2ccccn2)n1)NCc1ccccn1
(b) CCN(CC)C(=O)CSc1nccc(-c2ccccn2)n1
(c) O=C(NCCOC(=O)CSc1nccc(-c2ccccn2)n1)Nc1ccc(C(F)(F)F)cc1
[Q] Order field: chromatographic logP | Direction: descending (largest first) Sort and list the labels as requested.
[A] c, b, a

Source listed as patent US7238697B2.
